# measurementTarget: recombinant human S1P1 receptor (Homo sapiens)
# Sequence (P21453 whole entry): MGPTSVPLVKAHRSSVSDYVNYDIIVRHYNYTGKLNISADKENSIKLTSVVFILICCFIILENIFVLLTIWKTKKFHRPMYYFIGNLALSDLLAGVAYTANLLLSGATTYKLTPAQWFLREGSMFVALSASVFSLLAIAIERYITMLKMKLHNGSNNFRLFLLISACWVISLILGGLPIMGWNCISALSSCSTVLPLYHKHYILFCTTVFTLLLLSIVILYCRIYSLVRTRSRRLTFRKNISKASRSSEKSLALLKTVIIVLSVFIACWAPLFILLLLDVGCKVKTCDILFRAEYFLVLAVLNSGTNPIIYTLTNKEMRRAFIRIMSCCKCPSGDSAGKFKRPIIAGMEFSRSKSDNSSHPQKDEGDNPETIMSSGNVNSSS
# measurementNotes: GTPγS assay to determine EC50 values
# Assay type: biochemical
# conditionLabel: 35S-GTPγS binding, membranes of CHO cells expressing human S1P1; read-out: EC50
pEC50: −log10 of the molar value.

compound	measurementTarget	pEC50
CCc1cc(-c2noc(-c3cnc(N4CCCC4)c(C)c3)n2)cc(C)c1OC[C@H](O)CN [Example 18]	recombinant human S1P1 receptor (Homo sapiens)	< 5.00
CCc1cc(-c2noc(-c3cnc(N4CCCC4)c(C)c3)n2)cc(C)c1OC[C@@H](O)CN [Example 19]	recombinant human S1P1 receptor (Homo sapiens)	< 5.00

---

# measurementTarget: recombinant human S1P1 receptor (Homo sapiens)
# measurementNotes: GTPγS assay to determine EC50 values
# Format: biochemical
# conditionLabel: 35S-GTPγS binding, membrane preparations of CHO cells expressing recombinant human S1P1 receptor; read-out: EC50
# Procedure: GTPγS Assay to Determine EC50 Values The pH is 7.4. Test compounds are dissolved and diluted in 100% DMSO and pre-incubated at room temperature for 30 min in 150 μl of the above assay buffer, in the absence of ^35S-GTPγS. After addition of 50 μl of ^35S-GTPγS, the assay is incubated for 1 h at rt. […] Membrane-bound ^35S-GTPγS is measured with a TopCount from Packard Biosciences. Specific binding is determined by subtracting non-specific binding from maximal binding. […]
Entries annotated with measured EC50

compoundString	measurementTarget	readoutUnit	EC50
CCN(CC)c1ncc(-c2nc(-c3cc(C)c(OC[C@@H](O)CNC(=O)CO)c(C)c3)no2)cc1C	recombinant human S1P1 receptor (Homo sapiens)	nM	0.9
CCN(CC)c1ncc(-c2nc(-c3ccc(OC[C@@H](O)CNC(=O)CO)cc3C)no2)cc1C	recombinant human S1P1 receptor (Homo sapiens)	nM	14
CCc1cc(-c2nc(-c3cc(C)c(OC[C@@H](O)CO)c(CC)c3)no2)cnc1N(CC)CC	recombinant human S1P1 receptor (Homo sapiens)	nM	12
CCN(CC)c1ncc(-c2nc(-c3cc(Cl)c(OC[C@@H](O)CO)c(OC)c3)no2)cc1C	recombinant human S1P1 receptor (Homo sapiens)	nM	8.9
